Hey, just so you know, these numbers are from PubChem BioAssay.

- measurementProtocol: yeast AGP1-GFP level changes, GLN3 branch – cell-based, multiplex flow cytometry, S. cerevisiae, primary screen (AID 1887);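 also: AGP1-GFP fusion strain of S. cerevisiae within a five-strain barcoded multiplex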
- conditionsUsed: 3 h, at 10 µM, stronger effect = higher value
Records with an inconclusive call do not appear. Calls of active or inactive are those of the source.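 The calls were made as follows: active = GFP signal above the screen-wide mean plus 3 SD, that is over about 124.5% of the solvent control; inconclusive = no reading because the compound's own fluorescence disturbed strain identification; inactive = the rest.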
measuredAttribute: GFP response, % of DMSO

Summary for this compound, C[C@]12CC[C@@H]3c4ccc(O)cc4CC[C@H]3[C@@H]1CCC2=O : GFP response, % of DMSO is 94.8% (inactive)

According to the records, this compound CN(C)CC/C=C1\c2ccccc2Sc2ccc(Cl)cc21 displays GFP response, % of DMSO of 106% (inactive)

GFP response, % of DMSO reported for this compound Cc1ccsc1C1NC(=O)c2ccccc2N1 (configuration not stated) : 93.8% (inactive)

Lab note: measured GFP response, % of DMSO of CN(C)CCCN1c2ccccc2Sc2ccccc21 was 120% (inactive)

// CC[N+]1(CC)CC2=Cc3ccccc3CC2C1 (configuration not stated) : GFP response, % of DMSO value = 88.9% (inactive)

According to the records, this compound CCc1cc(=O)oc2cc(OCc3nn[nH]n3)ccc12 displays GFP response, % of DMSO of 100% (inactive)

Record Cc1nc2ccccc2n1CC(O)Cn1c2ccccc2c2ccccc21 (configuration not stated) , field GFP response, % of DMSO: 91.9% (inactive)

Value of measured GFP response, % of DMSO for the entry O=C(/C=C/c1ccc(F)cc1)N1CC[C@@]2(O)CCCC[C@H]2C1 : 96.5% (inactive)

// GFP response, % of DMSO value for Cc1cccc(-n2c(Cc3ccccc3)n[nH]c2=S)c1 : 100% (inactive)

Record summary for CN(C)CCOCCOc1ccc(Cl)cc1Br : reported GFP response, % of DMSO = 90.3% (inactive)

Data point: COc1ccc(C(=O)Nc2ccccc2C(=O)NC(Cc2c[nH]c3ccccc23)C(=O)O)cc1 (configuration not stated) ; GFP response, % of DMSO = 95.4% (inactive)

// O=C(/C=C/c1ccc2c(c1)OCCCO2)c1ccc2ccccc2c1O : GFP response, % of DMSO value = 109% (inactive)

For reference, reported GFP response, % of DMSO for CN1/C(=C\C=Nc2ccccc2)C(C)(C)c2ccccc21 stands at 113% (inactive)

Form: compound = Cc1ccc(O)c(CCc2ccccc2)n1 ; GFP response, % of DMSO = 98.3% (inactive)

Kindly note the recorded GFP response, % of DMSO for CO[C@H]1C=CO[C@@]2(C)Oc3c(C)c(O)c4c(O)c(c(C=NN5CCN(C)CC5)c(O)c4c3C2=O)NC(=O)C(C)=CC=C[C@H](C)[C@H](O)[C@@H](C)[C@@H](O)[C@@H](C)[C@H](OC(C)=O)[C@@H]1C , which is 98.2% (inactive)

Sure, the documented GFP response, % of DMSO for O=C(CS(=O)(=O)c1ccccc1)c1ccc2c(c1)OCCO2 is 113% (inactive)

# compound COc1ccccc1CCn1cnc2c3cc(C)ccc3n(C)c2c1=O ; its GFP response, % of DMSO = 98.8% (inactive)

GFP response, % of DMSO reading for C=CCOC(=O)C1=C(C)NC(=O)NC1/C=C/c1ccccc1OC (configuration not stated) : 108% (inactive)

GFP response, % of DMSO measured on CCOc1ccc(C(=O)N2CCCC2C(=O)O)cc1 (configuration not stated) = 102% (inactive)

# GFP response, % of DMSO of Cc1oncc1C(=O)Nc1ccc(C(F)(F)F)cc1 = 105% (inactive)

Given item CC1(C)O[C@@H]2C[C@H]3[C@@H]4C[C@H](F)C5=CC(=O)CC[C@]5(C)[C@H]4[C@@H](O)C[C@]3(C)[C@]2(C(=O)CO)O1 , the value recorded as its GFP response, % of DMSO is 92.4% (inactive)

Looking up CC(C)CN1CCN(Cc2ccc(C#CC(C)(C)O)cc2)CC1CCO (configuration not stated) , I found its GFP response, % of DMSO recorded as 86.6% (inactive)

###

Assign superoxide response (% of plate) to each entry below.
- measurementProtocol: calorie-restriction mimetic ROS inhibitors, yeast – validation compound set, pilot screen (AID 2706);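 also: yeast exposed to compound for one week at 30 degrees C before staining; 100% = mean of all compound wells on the same plate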
- conditionsUsed: S. cerevisiae aging, superoxide DHE fluorescence; at 10 µM; stronger effect = lower value
Provide the reading as a plain figure in %.

# molecule COc1cc(C(=O)OCCn2c(=O)c3c(ncn3CCN(C)C)n(C)c2=O)cc(OC)c1OC ; its superoxide response (% of plate) = 115

superoxide response (% of plate) for CC(=O)c1cc2c(cc1NC(=O)c1ccco1)OCCO2 is 91.9

Just so you know, measured superoxide response (% of plate) for CCC1CCc2c(sc(NC(=O)c3cccnc3)c2C(N)=O)C1 (centres undefined) came out at 99.6

Memo: COc1ccc(C(=O)Nc2cccc3cccnc23)cc1OC , reported superoxide response (% of plate): 103

Given item CCc1cc2c(=O)c(-c3ccc4c(c3)OCCO4)coc2c(CN2CCCCC2C)c1O (centres undefined) , the value recorded as its superoxide response (% of plate) is 65.8

Per the record, Fc1ccc(-c2cc(-c3ccccc3)nc(-n3cccn3)n2)cc1 has superoxide response (% of plate) of 92

So for Cc1oncc1C(=O)Nc1ccc(C(F)(F)F)cc1 , the logged superoxide response (% of plate) turned out to be 101

# molecule CC(=O)c1c[nH]c2ccc(C)cc2c1=O ; its superoxide response (% of plate) = 104

Looking up COc1ccc2[nH]c(=O)c(CN(C(=O)c3ccco3)C(C)C)cc2c1 , I see its superoxide response (% of plate) listed as 108

Looking up COC(=O)C1=C(C)N(C)C(=S)NC1c1ccc(Cl)cc1 (centres undefined) , I found its superoxide response (% of plate) recorded as 99.9

Reported superoxide response (% of plate) ( O=C(c1cc2cc(Br)ccc2o1)N1CCCC1 ) = 93.6

Reported superoxide response (% of plate) ( O=C(COc1ccc2ccc(=O)oc2c1)c1ccccc1 ) = 98.8

Given item COc1ccc2[nH]cc(C3N4CC5(C)CN3CC(C)(C4)C5=O)c2c1 (centres undefined) , the value recorded as its superoxide response (% of plate) is 105

Documented superoxide response (% of plate) of COc1ccccc1N1C(=O)C2CC(C)=C(C)CC2C1=O (centres undefined) : 109

Quick note, superoxide response (% of plate) for C#C[C@]1(O)CC[C@H]2[C@@H]3CCc4cc(O)ccc4[C@H]3CC[C@@]21C landed at 76.7

Input CC1=NN(C(=O)c2ccc(Br)cc2)C(O)(c2ccccc2)C1 (centres undefined) . Output superoxide response (% of plate): 86.9

Measured superoxide response (% of plate) of O=C1CC2(CCCC2)CC(=O)N1CCCCN1CCN(c2ncccn2)CC1 : 101

Form field superoxide response (% of plate), entry COc1cccc(=O)c2c(C)n(CC(=O)c3ccccc3)c(C)c12 : 96.3

Value of measured superoxide response (% of plate) for the entry COc1cc(CNc2ccc(C)c(C)c2)cc(OC)c1OC : 90.2

The recorded superoxide response (% of plate) for COc1ccc(CCN=CC2=C(O)CC(C)(C)CC2=O)cc1 is 91.4

The molecule listed as CC(=O)Nc1c(I)c(NC(C)=O)c(I)c(C(=O)O)c1I has a reported superoxide response (% of plate) of 103

// sample CC1=C/C(=N\N=C2\NC(=O)C(CC(=O)Nc3ccccc3F)S2)CC(C)(C)C1 (centres undefined) , its superoxide response (% of plate) was 96.1

Record summary for CN1CCN(C2=Nc3ccccc3Oc3ccc(Cl)cc32)CC1 : reported superoxide response (% of plate) = 112

So, CCC(C(=O)OCCN(CC)CC)c1ccccc1 (centres undefined) ? Its superoxide response (% of plate) was 97.2

###

- experimentalSystem: GTPase HRas (Homo sapiens)
- measurementProtocol: Ras wt fluorescent GTP loading blockade – biochemical, wildtype, multiplex bead flow cytometry, dose response (AID 1335)
- conditionsUsed: bead-based flow cytometry, Bodipy-GTP binding to GST-Ras; at 100 µM (top of the series) unless noted
I'd be grateful if you could share measured GTP binding, percent of control for these entries.

Please fill in: GTP binding, percent of control reported for CSc1nsc(SC)c1NC(=O)OC1CCCCC1 = 63.4%

Please fill in: GTP binding, percent of control reported for CCOc1cc(/C=C2/NC(=O)NC2=O)cc([N+](=O)[O-])c1O = 64.7%

GTP binding, percent of control measured on Cc1nc2nc(SCC(=O)O)nn2c(C)c1Cc1c(F)cccc1Cl = 75.3%

Entry O=C(Nc1cc(S(=O)(=O)Nc2ccccc2Cl)ccc1O)c1sc2cc(Cl)ccc2c1Cl — recorded GTP binding, percent of control = 81.2%

Value of GTP binding, percent of control reported for the molecule Cc1ccc(CSCc2ccc(C(=O)O)o2)cc1 is 74.2%

Just so you know, measured GTP binding, percent of control for Cc1ccc(OCc2ccc(C(=O)O)o2)cc1C came out at 90.6%
